# System: CCRF-CEM (Leukemia)
# test description: NCI one dose, CCRF-CEM
# Type: cell-based, human
# particulars: 1.00E-5 Molar one dose
Listing of recorded Growth Percent by entry.
Report the figure in % without appending any unit label.

Reference set, count: 4
| molecule | Growth Percent (%) |
| --- | --- |
| O=C(NCc1cccc(C(F)(F)F)c1)[C@@H]1CS[C@H]2c3ccccc3C(=O)N12 [4aD] | 99.20 |
| COc1ccc(CNC(=O)[C@@H]2CS[C@H]3c4ccccc4C(=O)N23)cc1 [4aF] | 97.27 |
| COc1ccccc1CNC(=O)[C@@H]1CS[C@H]2c3ccccc3C(=O)N12 [4aG] | 101.17 |
| O=C(NCc1ccc(Cl)cc1Cl)[C@@H]1CS[C@H]2c3ccccc3C(=O)N12 [4aH] | 92.66 |

Now, please, on to the next molecule.
Value of Growth Percent reported for the molecule COc1cccc(CNC(=O)[C@@H]2CS[C@@]3(C)c4ccccc4C(=O)N23)c1 [4bE] is 94.80

* * *

# System: CAKI-1 (Renal Cancer)
# test description: NCI one dose, CAKI-1
# Type: cell-based, human
# particulars: CAKI-1, 1.00E-5 Molar one dose
This section presents compounds with their documented Growth Percent values.
Express it in %; write the number only.

Solved cases below.
| compound | Growth Percent [%] |
| --- | --- |
| COc1cc(CNC(=O)[C@@H]2CS[C@@]3(C)c4ccccc4C(=O)N23)cc(OC)c1OC [4bJ] | 89.81 |
| C[C@@]12SC[C@@H](C(=O)NCc3ccccc3C(F)(F)F)N1C(=O)c1ccccc12 [4bC] | 84.55 |
| COc1ccccc1CNC(=O)[C@@H]1CS[C@H]2c3ccccc3C(=O)N12 [4aG] | 94.09 |
| COc1ccc(CNC(=O)[C@@H]2CS[C@@]3(C)c4ccccc4C(=O)N23)cc1OC [4bI] | 89.36 |
| O=C(NCc1cccc(C(F)(F)F)c1)[C@@H]1CS[C@H]2c3ccccc3C(=O)N12 [4aD] | 97.61 |
| C[C@@]12SC[C@@H](C(=O)NCc3ccccc3)N1C(=O)c1ccccc12 [4bA] | 89.87 |
| COc1ccc(CNC(=O)[C@@H]2CS[C@H]3c4ccccc4C(=O)N23)cc1OC [4aI] | 95.39 |
| O=C(NCc1ccccc1)[C@@H]1CS[C@H]2c3ccccc3C(=O)N12 [4aA] | 94.90 |
| C[C@@]12SC[C@@H](C(=O)NCc3cccc(C(F)(F)F)c3)N1C(=O)c1ccccc12 [4bD] | 80.18 |
| COc1ccccc1CNC(=O)[C@@H]1CS[C@@]2(C)c3ccccc3C(=O)N12 [4bG] | 90.92 |

The compound C[C@@]12SC[C@@H](C(=O)NCc3ccccc3Br)N1C(=O)c1ccccc12 [4bB] , when measured on CAKI-1 (Renal Cancer), yielded Growth Percent of 79.18

The reported CAKI-1 (Renal Cancer) Growth Percent of COc1cc(CNC(=O)[C@@H]2CS[C@H]3c4ccccc4C(=O)N23)cc(OC)c1OC [4aJ] is 95.05

Tested on CAKI-1 (Renal Cancer), the item O=C(NCc1ccc(Cl)cc1Cl)[C@@H]1CS[C@H]2c3ccccc3C(=O)N12 [4aH] showed Growth Percent equal to 101.46

// Growth Percent (CAKI-1 (Renal Cancer)) for COc1cccc(CNC(=O)[C@@H]2CS[C@H]3c4ccccc4C(=O)N23)c1 [4aE] = 96.42

The reported Growth Percent value, CAKI-1 (Renal Cancer), for COc1ccc(CNC(=O)[C@@H]2CS[C@H]3c4ccccc4C(=O)N23)cc1 [4aF] reads 97.50

Entry COc1ccc(CNC(=O)[C@@H]2CS[C@@]3(C)c4ccccc4C(=O)N23)cc1 [4bF] , CAKI-1 (Renal Cancer) data, Growth Percent value: 85.69

CAKI-1 (Renal Cancer) assay, compound C[C@@]12SC[C@@H](C(=O)NCc3ccc(Cl)cc3Cl)N1C(=O)c1ccccc12 [4bH] , recorded Growth Percent = 86.12

Noted Growth Percent for COc1cccc(CNC(=O)[C@@H]2CS[C@@]3(C)c4ccccc4C(=O)N23)c1 [4bE] , tested on CAKI-1 (Renal Cancer): 85.65

I looked up O=C(NCc1ccccc1C(F)(F)F)[C@@H]1CS[C@H]2c3ccccc3C(=O)N12 [4aC] and its Growth Percent for CAKI-1 (Renal Cancer) was 97.48

* * *

# Tested on: MOLT-4 (Leukemia)
# test description: NCI one dose, MOLT-4
# Format: cell-based, human
# particulars: MOLT-4, 1.00E-5 Molar one dose
property label: Growth Percent (%)
Supply the numeric figure in %, leaving out any unit text.

response.value for COc1ccc(CNC(=O)[C@@H]2CS[C@H]3c4ccccc4C(=O)N23)cc1 (field: Growth Percent) = 97.28

Just so you know, measured Growth Percent for O=C(NCc1ccc(Cl)cc1Cl)[C@@H]1CS[C@H]2c3ccccc3C(=O)N12 came out at 79.54

# Growth Percent (compound: COc1cccc(CNC(=O)[C@@H]2CS[C@@]3(C)c4ccccc4C(=O)N23)c1 ) is 85.50

Value of Growth Percent reported for the compound C[C@@]12SC[C@@H](C(=O)NCc3ccc(Cl)cc3Cl)N1C(=O)c1ccccc12 is 83.18

// COc1cc(CNC(=O)[C@@H]2CS[C@@]3(C)c4ccccc4C(=O)N23)cc(OC)c1OC : Growth Percent value = 81.24

Briefly, Growth Percent measured for COc1ccccc1CNC(=O)[C@@H]1CS[C@H]2c3ccccc3C(=O)N12 : 97.42

Sure, the documented Growth Percent for C[C@@]12SC[C@@H](C(=O)NCc3cccc(C(F)(F)F)c3)N1C(=O)c1ccccc12 is 75.84

Consider COc1cc(CNC(=O)[C@@H]2CS[C@H]3c4ccccc4C(=O)N23)cc(OC)c1OC . Its measured Growth Percent is 90.32

Field Growth Percent (entry C[C@@]12SC[C@@H](C(=O)NCc3ccccc3)N1C(=O)c1ccccc12 ) reads 93.49

Growth Percent reading for COc1ccc(CNC(=O)[C@@H]2CS[C@@]3(C)c4ccccc4C(=O)N23)cc1OC : 76.47

* * *

Reported Growth Percent values follow for various compounds
# Tested on: RXF 393 (Renal Cancer)
# test description: NCI one dose, RXF 393
# Format: cell-based, human
# particulars: RXF 393, 1.00E-5 Molar one dose
The reply should be a number in %, with the unit left off.

Worked examples follow.
| substance smiles | tested system | property label | quantitative result |
| --- | --- | --- | --- |
| C[C@@]12SC[C@@H](C(=O)NCc3ccccc3Br)N1C(=O)c1ccccc12 | RXF 393 (Renal Cancer) | Growth Percent | 96.88 |
| COc1ccc(CNC(=O)[C@@H]2CS[C@@]3(C)c4ccccc4C(=O)N23)cc1OC | RXF 393 (Renal Cancer) | Growth Percent | 104.59 |
| COc1cc(CNC(=O)[C@@H]2CS[C@@]3(C)c4ccccc4C(=O)N23)cc(OC)c1OC | RXF 393 (Renal Cancer) | Growth Percent | 98.72 |
| COc1cccc(CNC(=O)[C@@H]2CS[C@@]3(C)c4ccccc4C(=O)N23)c1 | RXF 393 (Renal Cancer) | Growth Percent | 107.08 |
| O=C(NCc1ccccc1C(F)(F)F)[C@@H]1CS[C@H]2c3ccccc3C(=O)N12 | RXF 393 (Renal Cancer) | Growth Percent | 115.46 |

Lab entry: RXF 393 (Renal Cancer) assay, compound O=C(NCc1ccc(Cl)cc1Cl)[C@@H]1CS[C@H]2c3ccccc3C(=O)N12 , Growth Percent = 105.25

# lookup: O=C(NCc1cccc(C(F)(F)F)c1)[C@@H]1CS[C@H]2c3ccccc3C(=O)N12 on RXF 393 (Renal Cancer), Growth Percent = 114.41

Growth Percent for RXF 393 (Renal Cancer) with input C[C@@]12SC[C@@H](C(=O)NCc3cccc(C(F)(F)F)c3)N1C(=O)c1ccccc12 equals 105.49

Record COc1cccc(CNC(=O)[C@@H]2CS[C@H]3c4ccccc4C(=O)N23)c1 ; system RXF 393 (Renal Cancer); Growth Percent = 101.84

Sample COc1ccccc1CNC(=O)[C@@H]1CS[C@H]2c3ccccc3C(=O)N12 , system: RXF 393 (Renal Cancer). Its Growth Percent is 114.62

Lab entry: RXF 393 (Renal Cancer) assay, compound C[C@@]12SC[C@@H](C(=O)NCc3ccccc3C(F)(F)F)N1C(=O)c1ccccc12 , Growth Percent = 101.10

Case COc1ccccc1CNC(=O)[C@@H]1CS[C@@]2(C)c3ccccc3C(=O)N12 , RXF 393 (Renal Cancer), Growth Percent recorded as 105.28

Measured Growth Percent for this entry O=C(NCc1ccccc1)[C@@H]1CS[C@H]2c3ccccc3C(=O)N12 on RXF 393 (Renal Cancer): 114.31

Simply: C[C@@]12SC[C@@H](C(=O)NCc3ccc(Cl)cc3Cl)N1C(=O)c1ccccc12 , RXF 393 (Renal Cancer), Growth Percent = 102.82

Field Growth Percent (system: RXF 393 (Renal Cancer)) for entry COc1ccc(CNC(=O)[C@@H]2CS[C@H]3c4ccccc4C(=O)N23)cc1OC = 110.33

Result for C[C@@]12SC[C@@H](C(=O)NCc3ccccc3)N1C(=O)c1ccccc12 , tested on RXF 393 (Renal Cancer), Growth Percent: 108.00
